- Tested on: SCC-9 (Oral Cavity Carcinoma);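 note: after 72 h of two-drug dosing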
- Procedure summary: Bliss excess, mean over the matrix (fraction); higher = more synergy
# Bliss excess per entry
Form field (numeric): enter value without unit.

CCc1c2c(nc3ccc(O)cc13)-c1cc3c(c(=O)n1C2)COC(=O)[C@]3(O)CC [SN-38] + O=C(c1cc(Cc2n[nH]c(=O)c3ccccc23)ccc1F)N1CCN(C(=O)C2CC2)CC1 [Olaparib] (first compound max 0.3 µM, 7x7, partner max 10 µM): 0.0207
CN(C)CCCOc1ccc(-c2ccc3ncc4c(c3c2)n(C2CCOCC2)c(=O)n4C)cn1 [AZD0156] + C=CCn1c(=O)c2cnc(Nc3ccc(N4CCN(C)CC4)cc3)nc2n1-c1cccc(C(C)(C)O)n1 [AZD1775] (first compound max 1 µM, partner max 1 µM): -0.036
N#Cc1cnc(Nc2cc(NC[C@H]3CNCCO3)c(C(F)(F)F)cn2)cn1 [SRA737] + O=c1[nH]cc(F)c(=O)[nH]1 [5-Fluorouracil] (first compound max 10 µM, 7x7, partner max 20 µM): 0.053

Pending molecule:
The value of Bliss excess measured for the molecule CC(=O)c1c(C)c2cnc(Nc3ccc(N4CCNCC4)cn3)nc2n(C2CCCC2)c1=O [Palbociclib] + Cc1c2c(nn1C)CSCc1cc(n(C)n1)CSc1cc(c3ccccc3c1)OCCCc1c(C(=O)O)n(C)c3c-2c(Cl)ccc13 [AZD5991] (first compound max 10 µM, 7x7, partner max 1 µM) turned out to be -0.0368
